Biological target: T1, recombinant hCTLA-4-mFc (human CTLA-4 extracellular domain with a C-terminal Fc portion of mouse IgG2a) (human)
T1 construct: also called dimeric CTLA-4 protein
T1 sequence (chain, as listed by the source limits assumed): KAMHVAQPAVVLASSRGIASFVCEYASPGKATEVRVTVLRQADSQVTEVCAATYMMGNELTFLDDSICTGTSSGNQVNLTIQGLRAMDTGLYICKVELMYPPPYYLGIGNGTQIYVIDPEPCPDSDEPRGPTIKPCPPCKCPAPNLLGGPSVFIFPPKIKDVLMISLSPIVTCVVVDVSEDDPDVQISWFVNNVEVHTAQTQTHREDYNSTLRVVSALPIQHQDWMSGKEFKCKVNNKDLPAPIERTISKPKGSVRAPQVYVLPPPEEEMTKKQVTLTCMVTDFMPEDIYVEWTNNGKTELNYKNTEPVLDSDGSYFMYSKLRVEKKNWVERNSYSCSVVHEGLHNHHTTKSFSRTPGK
Assay: competition ELISA, 400 pM hCTLA-4-mFc on plate-coated hB7-2-hIgG1-6His
assay metric: % Blockade (%)
Field: numeric (%). Do not append units.

binder: H1H20370N (antibody, human IgG1, V domains shown, here with human IgG1 Fc (H1H)) VH: QVQLHESGPGLVKPSQTLSLTCSVSGGSISNGGYYWSWIRQHPGQGLEWIGYIYYIGNTYYNPSLESRVTMSIDTSKNQFSLKLSSVTAADTAIYYCARQEFVPGAEYFLHWGQGILVTVSS VL: DIRMTQSPSSLSASVGDRVTITCRASQTVNTFLNWYQQKPGKAPKLLIFGASSLQSGVPSRFSGSGSGTDFTLTISGLQPEDFAIYYCQQSYSVPPITFGQGTRLEIE
% Blockade [%]: 96
--
binder: H1H19294P (antibody, human IgG1, V domains shown) VH: QVQLVQSGAEVKMSGASVRVSCKASGYTFTSYGISWMRQAPGQGLEWMGWITAYNGNSNYAQKLQGRVTMTTDTSTGTAYMELRSLTSDDTAVYYCARRGDYLGVFPYWGQGTLVTVSS VL: DIQMTQSPSSLSASVGDRVTITCRASQSISSYLNWYQQKPGKAPNLLIYTASSLQSGVPSRFSGSGSGTDFTLTISSLQPEDFATYYCQQSYSSPLTFGGGTKVEIK
% Blockade [%]: 99

Consider H1H20386N (antibody, human IgG1, V domains shown, here with human IgG1 Fc (H1H)) VH: QVQLVESGGGVVQPGRSLRLSCAASGFTVNRYGIHWVRQAPGKGLEWVAVTWYDGRNKYFADSVKGRFSFSRDSSTNTLYLQMNSLRAEDTAVYYCARGGLFGYFDYWGQGTLVTVSS VL: EIVLTQSPDTLSLSPGERATLSCRASQSVAGSYLAWYQQKPGQAPRLLIYGASSRATGIPDRFSGSGSGTDFTLTISRLEPEDFAVYYCQQYGTSPWTFGQGTKVEIT . Its measured % Blockade is 96
